biological target: Histamine H2 receptor (Homo sapiens, UniProt P25021); format: functional, cell-based; also: assay procedure not described here
Sequence (P25021 whole entry): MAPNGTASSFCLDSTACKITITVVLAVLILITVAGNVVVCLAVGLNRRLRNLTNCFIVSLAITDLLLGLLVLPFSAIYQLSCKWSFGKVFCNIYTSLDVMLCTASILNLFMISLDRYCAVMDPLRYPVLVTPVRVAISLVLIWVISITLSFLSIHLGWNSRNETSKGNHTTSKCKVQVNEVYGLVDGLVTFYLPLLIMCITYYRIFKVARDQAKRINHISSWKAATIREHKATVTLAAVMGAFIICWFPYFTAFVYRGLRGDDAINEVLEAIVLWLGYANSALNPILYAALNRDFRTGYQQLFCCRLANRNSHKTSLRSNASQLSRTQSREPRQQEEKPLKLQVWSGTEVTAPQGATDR
experimental-readout: AC50

Request the reported AC50 associated with CN1C(C(=O)Nc2ccccn2)=C(O)c2ccccc2S1(=O)=O [PIROXICAM]
> 30 µM

Request the reported AC50 associated with CC1OC2(CS1)CN1CCC2CC1 (centres undefined) [CEVIMELINE]
> 30 µM

Request the reported AC50 associated with NC(=O)CN1CCCC1=O
> 30 µM

Request the reported AC50 associated with CC(=O)O[C@]1(C(C)=O)CC[C@H]2[C@@H]3C=C(C)C4=CC(=O)CC[C@@H]4[C@H]3CC[C@@]21C [NOMEGESTROL ACETATE]
> 30 µM

Request the reported AC50 associated with O=C1C(CC[S+]([O-])c2ccccc2)C(=O)N(c2ccccc2)N1c1ccccc1 (centres undefined) [SULFINPYRAZONE]
> 10 µM

Request the reported AC50 associated with CC(CCc1ccc(O)cc1)NCCc1ccc(O)c(O)c1 (centres undefined) [DOBUTAMINE]
> 10 µM

Request the reported AC50 associated with O=C1CCc2cc(OCCCCc3nnnn3C3CCCCC3)ccc2N1 [CILOSTAZOL]
> 30 µM

Request the reported AC50 associated with CC(C)[C@H](N)C(=O)OCC(CO)OCn1cnc2c(=O)nc(N)[nH]c21 (some centres undefined) [VALGANCICLOVIR]
> 30 µM

Request the reported AC50 associated with Cc1onc(-c2ccccc2)c1-c1ccc(S(N)(=O)=O)cc1 [VALDECOXIB]
> 10 µM

Request the reported AC50 associated with OC[C@H]1O[C@@](CO)(O[C@H]2O[C@H](CO)[C@@H](O)[C@H](O)[C@H]2O)[C@@H](O)[C@@H]1O [SUCROSE]
> 30 µM

Request the reported AC50 associated with Cc1cnc(C(=O)NCCc2ccc(S(=O)(=O)NC(=O)NC3CCCCC3)cc2)cn1 [GLIPIZIDE]
> 10 µM

Request the reported AC50 associated with CC(C)N(CCC(C(N)=O)(c1ccccc1)c1ccccn1)C(C)C (centres undefined) [DISOPYRAMIDE]
> 10 µM

Request the reported AC50 associated with CCN(CC)CCNC(=O)c1c(C)[nH]c(/C=C2\C(=O)Nc3ccc(F)cc32)c1C [SUNITINIB]
> 30 µM

Request the reported AC50 associated with CC(=O)N[C@@H](CS)C(=O)O [ACETYLCYSTEINE]
> 30 µM

Request the reported AC50 associated with CCN(CC)CCNC(=O)c1cc(S(C)(=O)=O)ccc1OC [TIAPRIDE]
> 30 µM

Request the reported AC50 associated with CC(N)C12CC3CC(CC(C3)C1)C2 (centres undefined) [RIMANTADINE]
> 10 µM

Request the reported AC50 associated with CC(C)Cc1ccc(C(C)C(=O)O)cc1 (centres undefined) [IBUPROFEN]
> 10 µM

Request the reported AC50 associated with O=[N+]([O-])c1ccc(O)c2ncccc12 [NITROXOLINE]
> 30 µM

Request the reported AC50 associated with CCN1CCCC1CNC(=O)c1cc(S(=O)(=O)CC)c(N)cc1OC (centres undefined) [AMISULPRIDE]
> 30 µM

---

target: Alpha-2C adrenergic receptor (Homo sapiens); assay type: functional; also: assay procedure not described here
Sequence (P18825 whole entry): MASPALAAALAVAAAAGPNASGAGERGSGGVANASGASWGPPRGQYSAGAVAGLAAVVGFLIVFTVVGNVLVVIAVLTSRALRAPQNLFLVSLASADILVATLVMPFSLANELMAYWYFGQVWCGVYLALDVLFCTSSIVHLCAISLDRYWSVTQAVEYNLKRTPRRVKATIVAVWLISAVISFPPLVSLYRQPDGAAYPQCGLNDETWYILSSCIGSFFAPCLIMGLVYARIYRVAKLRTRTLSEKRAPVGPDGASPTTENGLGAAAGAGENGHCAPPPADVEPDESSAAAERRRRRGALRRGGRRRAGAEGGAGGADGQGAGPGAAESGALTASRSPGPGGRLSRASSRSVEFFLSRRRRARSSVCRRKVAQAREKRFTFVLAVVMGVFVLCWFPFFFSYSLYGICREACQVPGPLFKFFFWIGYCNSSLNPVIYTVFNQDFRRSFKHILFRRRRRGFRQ
experimental-readout: AC50

Form field - read-out: AC50; system: Alpha-2C adrenergic receptor (Homo sapiens); submitted item: CO[C@H]1/C=C/O[C@@]2(C)Oc3c(C)c(O)c4c(O)c(c(/C=N/N5CCN(C)CC5)c(O)c4c3C2=O)NC(=O)/C(C)=C\C=C\[C@H](C)[C@H](O)[C@@H](C)[C@@H](O)[C@@H](C)[C@H](OC(C)=O)[C@@H]1C; also: assay procedure not described here
11 µM

Form field - read-out: AC50; system: Alpha-2C adrenergic receptor (Homo sapiens); submitted item: CCOC(=O)C1=C(C)NC(C)=C(C(=O)OC)C1c1cccc([N+](=O)[O-])c1 (stereo unspecified); also: assay procedure not described here
> 10 µM

Form field - read-out: AC50; system: Alpha-2C adrenergic receptor (Homo sapiens); submitted item: CCC(COC(=O)c1cc(OC)c(OC)c(OC)c1)(c1ccccc1)N(C)C (stereo unspecified); also: assay procedure not described here
> 30 µM

Form field - read-out: AC50; system: Alpha-2C adrenergic receptor (Homo sapiens); submitted item: Clc1ccc2c(N3CCN(CCCN4CCN(c5ccnc6cc(Cl)ccc56)CC4)CC3)ccnc2c1; also: assay procedure not described here
> 30 µM

Form field - read-out: AC50; system: Alpha-2C adrenergic receptor (Homo sapiens); submitted item: CC(=O)OCC(=O)[C@@]1(O)[C@H](C)C[C@H]2[C@@H]3CCC4=CC(=O)C=C[C@]4(C)[C@@]3(F)[C@@H](O)C[C@@]21C [DEXAMETHASONE ACETATE]; also: assay procedure not described here
> 10 µM

Form field - read-out: AC50; system: Alpha-2C adrenergic receptor (Homo sapiens); submitted item: CN1C[C@H](C(=O)N[C@]2(C)O[C@@]3(O)[C@@H]4CCCN4C(=O)[C@H](Cc4ccccc4)N3C2=O)C=C2c3cccc4[nH]cc(c34)C[C@H]21; also: assay procedure not described here
0.14 µM
